Test system: Mus musculus
Test: Median protective dose determined in acute lethal system infection caused by Escherichia coli vogel in CD-1 mice (single dose sc)
Type: functional
Details: read-out: PD50
# key: entry, value: log10(ED50)
Transform log10 | Measure ED50 | Unit mg/kg

Here's what some known entries look like.
[
  {
    "COMPOUND": "NC1CN(c2c(F)cc3c(=O)c(C(=O)O)cn(C4CC4)c3c2F)CC1c1ccc(O)cc1 (trans isomer)",
    "NUMERIC RESULT": 1.70
  },
  {
    "COMPOUND": "NC1CN(c2nc3c(cc2F)c(=O)c(C(=O)O)cn3C2CC2)CC1c1ccccc1 (configuration not stated)",
    "NUMERIC RESULT": 0.81
  },
  {
    "COMPOUND": "Nc1ccc(C2CN(c3nc4c(cc3F)c(=O)c(C(=O)O)cn4C3CC3)CC2N)cc1 (trans isomer)",
    "NUMERIC RESULT": 0.49
  },
  {
    "COMPOUND": "NC1CN(c2nc3c(cc2F)c(=O)c(C(=O)O)cn3C2CC2)CC1c1ccc(F)cc1 (trans isomer)",
    "NUMERIC RESULT": 0.95
  },
  {
    "COMPOUND": "Nc1ccc(C2CN(c3c(F)cc4c(=O)c(C(=O)O)cn(C5CC5)c4c3F)CC2N)cc1 (trans isomer)",
    "NUMERIC RESULT": 0.20
  }
]

The compound listed as COc1ccccc1C1CN(c2nc3c(cc2F)c(=O)c(C(=O)O)cn3C2CC2)CC1N (stereo in doubt) shows log10(ED50) equal to 1.45

Sure, the documented log10(ED50) for NC1CN(c2c(F)cc3c(=O)c(C(=O)O)cn(C4CC4)c3c2F)CC1c1ccccc1 (trans isomer) is 0.85
